molecular target: T1, antibody raised against ETAG; assay: phage ELISA, 405 nm; anti-E-tag antibody coated
T1 construct: read-out of display; also called E-tag antibody; E tag antibody
Friendly reminder: ETAG (OD) below 10 OD is 1, at or above is -1.

Take a look at these entries with their results.
| Binder | Answer label |
| --- | --- |
| LHFGSVMGWRPPGSLWSRPFGQVHPRSWSGSAAAGAPVPYPDPLEPRP (not shown: phage gene III coat protein (pCANTAB5E)) [DGI-2-40F-3-D11] | -1 |
| DAGIGWVGSMWFPPGCIGACAAAGAPVPYPDPLEPRP (not shown: phage gene III coat protein (pCANTAB5E)) [DGI-2-20R-4-E82] | -1 |
| MGSLGPFGNINSLASGIGSVRNRPLLPLHGSPAAAGAPVPYPDPLEPRP (not shown: phage gene III coat protein (pCANTAB5E)) [DGI-2-40F-3-D72] | -1 |
| MSTLQGPGHLFQMLRRASLGAAAGAPVPYPDPLEPRP (not shown: phage gene III coat protein (pCANTAB5E)) [DGI-2-20R-4-H12] | -1 |

// query Would you kindly verify if ETAG (OD) of LHRLGQSMGGTLDHLQGWGVAAAGAPVPYPDPLEPRP (not shown: phage gene III coat protein (pCANTAB5E)) [DGI-2-20R-4-E5] is strictly less than 10 OD?
// result -1

// query Record: DGL-2-40F-3-D10 (not shown: phage gene III coat protein (pCANTAB5E)) peptide: TLVTEGNKGSVKAHKDIGVWQLWWDWLSVTDSETVGRVSHAAAGAPVPYPDPLEPRP
// result -1
